Assay: Pharmacokinetic experiment in mice (single dose iv and intragastric)
Type: in vivo
Details: mouse, plasma; male C57 mice, po 10 mg/kg vs iv 2.5 mg/kg; read-out: F (bioavailability)
As shown below, each of these molecules has a reported bioavailability value.
In your response, put the unit directly after the numeric value.

Example molecules with recorded bioavailability:
1) O=C(Cc1nnc(-c2cnc(N[C@@H]3Cc4ccc(C(F)(F)F)cc4C3)nc2)o1)N1CCc2[nH]nnc2C1 [Compound 35] = 35.6%
2) O=C(Cc1nnc(-c2cnc(N[C@@H]3Cc4ccc(C(F)F)cc4C3)nc2)o1)N1CCc2[nH]nnc2C1 [Compound 37] = 17.8%

Kindly consider the entry below.
Query: Give me measured bioavailability, please, for this molecule: C[C@@](F)(C(=O)N1CCc2[nH]nnc2C1)c1nnc(-c2cnc(NC3Cc4ccccc4C3)nc2)o1 (single isomer, unassigned) [Compound 38]
Response: 59.3%
